Study the reported Ki values for the protein given by its sequence given below; they originate from different publications.
Target protein (sequence): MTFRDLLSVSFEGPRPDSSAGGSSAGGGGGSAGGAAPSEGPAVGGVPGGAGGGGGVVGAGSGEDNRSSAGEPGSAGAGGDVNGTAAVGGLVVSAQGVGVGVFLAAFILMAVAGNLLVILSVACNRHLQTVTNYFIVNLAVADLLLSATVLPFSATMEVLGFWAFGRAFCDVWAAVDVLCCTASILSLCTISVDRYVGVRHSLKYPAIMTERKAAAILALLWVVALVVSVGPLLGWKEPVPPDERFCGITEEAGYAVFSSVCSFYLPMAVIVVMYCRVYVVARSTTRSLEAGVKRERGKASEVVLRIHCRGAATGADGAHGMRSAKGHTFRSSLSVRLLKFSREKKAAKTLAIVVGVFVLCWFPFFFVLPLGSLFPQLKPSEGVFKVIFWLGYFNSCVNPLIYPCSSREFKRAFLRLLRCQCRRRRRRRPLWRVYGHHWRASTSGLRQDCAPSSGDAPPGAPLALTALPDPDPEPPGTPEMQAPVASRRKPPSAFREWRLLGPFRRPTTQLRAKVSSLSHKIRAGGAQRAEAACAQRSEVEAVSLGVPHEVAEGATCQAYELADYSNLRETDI
Remember to put the unit after the number in your answer.

Observe how each entry below is paired with its result.
INSERT INTO assay_data (compound, target_or_test_system, obs_value) VALUES
  ('COc1ccccc1N1CCN(CCn2c(C)nc3c(sc4ccc(NC(=O)c5ccccc5)cc43)c2=O)CC1', 'the protein given by its sequence', '5.01 nM'),
  ('COc1ccccc1N1CCN(Cc2ccc(CN3CCCCC3O)s2)CC1 (stereo not drawn)', 'the protein given by its sequence', '130 nM');

Asked: Form field: reported Ki of N=c1c(C(N)=O)cc(Cl)cn1Cc1cc(Cl)cc(C(N)=O)c1
Given back: 3.7 nM
